The measured values listed here are drawn from patent US20240116985A1.

Molecular target: T1, B-cat-Halo (UniProt P35222 1-781)
T1 sequence (looked up): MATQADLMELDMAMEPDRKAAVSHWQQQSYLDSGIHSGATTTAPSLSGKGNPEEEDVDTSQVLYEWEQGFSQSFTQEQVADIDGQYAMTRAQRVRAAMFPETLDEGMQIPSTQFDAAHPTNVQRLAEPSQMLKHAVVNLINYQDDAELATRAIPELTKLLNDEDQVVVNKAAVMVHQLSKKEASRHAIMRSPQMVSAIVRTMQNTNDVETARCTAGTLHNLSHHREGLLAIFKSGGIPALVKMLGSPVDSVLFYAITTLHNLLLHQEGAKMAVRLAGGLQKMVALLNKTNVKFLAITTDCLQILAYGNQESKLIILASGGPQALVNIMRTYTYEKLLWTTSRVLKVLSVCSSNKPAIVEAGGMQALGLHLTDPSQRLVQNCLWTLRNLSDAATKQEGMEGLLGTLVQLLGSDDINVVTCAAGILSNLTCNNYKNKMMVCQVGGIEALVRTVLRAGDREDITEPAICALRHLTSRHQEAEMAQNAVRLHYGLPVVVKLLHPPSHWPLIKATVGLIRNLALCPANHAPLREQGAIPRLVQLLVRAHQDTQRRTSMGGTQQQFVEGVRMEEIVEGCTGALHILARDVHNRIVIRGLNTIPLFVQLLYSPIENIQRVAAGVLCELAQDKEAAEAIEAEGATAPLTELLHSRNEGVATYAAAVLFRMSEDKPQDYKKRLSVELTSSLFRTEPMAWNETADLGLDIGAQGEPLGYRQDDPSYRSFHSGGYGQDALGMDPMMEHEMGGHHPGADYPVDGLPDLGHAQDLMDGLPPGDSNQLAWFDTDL
Experiment: cell-based or functional assay
Starred links: 1 amine or outer side, 2 acyl side, 3 side chain; linkers in the order of their positions; H or OH if unused. Positions of bridges follow the written chain, without caps; N, C: chain ends. Non-standard residues stand in square brackets, D forms with d. Primed or numbered codes have the meaning given here. PyrS2″ = (S)-3-amino-1-((pent-4-en-1-yloxy)carbonyl)pyrrolidine-3-carboxylic acid (stapling residue), C=CCCCOC(=O)N1CC[C@@](N[*:1])(C(=O)[*:2])C1; B5(5) = 2,2-bis(4-pentenyl)glycine, 2-amino-2-(pent-4-en-1-yl)hept-6-enoic acid (stitching residue), C=CCCCC(CCCC=C)(N[*:1])C(=O)[*:2]; 5iPr3COOHF = (S)-3-(2-amino-2-carboxyethyl)-5-isopropylbenzoic acid, CC(C)c1cc(C[C@H](N[*:1])C(=O)[*:2])cc(C(=O)[*:3])c1; MorphAsn = (S)-2-amino-4-morpholino-4-oxobutanoic acid, O=C(C[C@H](N[*:1])C(=O)[*:2])N1CCOCC1; Phe(2-CF3) = N[C@@H](Cc1ccccc1C(F)(F)F)C(=O)O; Bta = N[C@@H](Cc1csc2ccccc12)C(=O)O; Lys(iPr) = CC(C)NCCCC[C@H](N)C(=O)O; αAllylPro = C=CC[C@@]1(C(=O)O)CCCN1; tBuAla = CC(C)(C)C[C@H](N)C(=O)O; 3Thi = N[C@@H](Cc1ccsc1)C(=O)O; Cha = N[C@@H](CC1CCCCC1)C(=O)O; hSer = N[C@@H](CCO)C(=O)O; 34ClF = not defined here; Aib = CC(C)(N)C(=O)O
parameter: NanoBRET Abs IC50

NanoBRET Abs IC50 for Ac-[αAllylPro]D[Cha][B5(5)]DQ[Lys(iPr)]AFL[PyrS2″]F[Bta]K-NH2 (staple 1-4, 4-11) [I-2429] is > 20 µM

NanoBRET Abs IC50 for Ac-[αAllylPro]D[tBuAla][B5(5)]D[5iPr3COOHF]QAFL[PyrS2″][Phe(2-CF3)][Bta]A-NH2 (staple 1-4, 4-11) [I-2431] is 7 µM

NanoBRET Abs IC50 for Ac-[αAllylPro]D[tBuAla][B5(5)]NT[Aib]AFN[PyrS2″][3Thi][34ClF]Q-NH2 (staple 1-4, 4-11; reading uncertain; also: printed as Ac-PL3-Asp-Npg-B5-Asn-Thr-Aib-Ala-Phe-Asn-PyrS2-3Thi-34C1F-Gln-NH2) [I-2417] is 21.6 µM

NanoBRET Abs IC50 for Ac-[αAllylPro]N[Cha][B5(5)]DQQAFL[PyrS2″]F[Bta]K-NH2 (staple 1-4, 4-11) [I-2421] is > 20 µM

NanoBRET Abs IC50 for Ac-[αAllylPro]D[tBuAla][B5(5)]D[5iPr3COOHF]AAFL[PyrS2″][Phe(2-CF3)][Bta]Q-NH2 (staple 1-4, 4-11) [I-2430] is 4.5 µM

NanoBRET Abs IC50 for Ac-[αAllylPro]N[Cha][B5(5)]DQ[Lys(iPr)]AFL[PyrS2″]F[Bta][MorphAsn]-NH2 (staple 1-4, 4-11) [I-2426] is > 20 µM

NanoBRET Abs IC50 for Ac-[αAllylPro]N[Cha][B5(5)]DQ[hSer]AFL[PyrS2″]F[Bta]K-NH2 (staple 1-4, 4-11) [I-2419] is > 20 µM
